Just for reference, patent US5466716A is where these values come from.

Assay method text: neutrophil viability (trypan blue exclusion)
Assay type: cell-based, human
Stated conditions: neutrophils; Table III, 2 μM, control 94
Metric name: viability at 10 min, 2 µM (%)
Numeric only. Scale: %

// query Return value of viability at 10 min, 2 µM for input CN[C@@H]1C[C@H]2O[C@@](C)([C@@H]1OC)n1c3ccccc3c3c4c(c5c6ccccc6n2c5c31)C(=O)NC4 [Staurosporine] , no commentary.
// result 83

---

Assay method text: neutrophil viability (trypan blue exclusion)
Format: cell-based, human
Stated conditions: neutrophils; Table V, 5 μM, 37° C., 10 min
Procedure: The viability was evaluated by trypan blue exclusion assay. The cell incubated at 37° C. for 10 min with effectors. The aliquot was mixed with an equal amount of trypan blue solution and immediately counte under a Nikon light microscope.
Metric name: viability at 10 min, 5 µM (%)
Report only the number, with the unit % understood.

{"columns": ["Compound", "Unit annotation", "viability at 10 min, 5 µM"],
 "data": [
  ["CCCCCCCCCCCCC/C=C/[C@@H](O)[C@@H](N)CO [SPN, sphingosine]", "%", 95],
  ["CCCCCCCCCCCCC/C=C/[C@@H](O)[C@H](CO)[N+](C)(C)C [TMS, N,N,N-trimethylsphingosine]", "%", 98]
]}

Continue with the next compound.
// query Give recorded viability at 10 min, 5 µM. CCCCCCCCCCCCC/C=C/[C@@H](O)[C@H](CO)N(C)C [DMS, (4E)-N,N-dimethyl-D-erythro-sphingosine]
// result 96
